Data credit: ChEMBL document CHEMBL4052689

Below, each entry is listed alongside its reported log10(IC50).
Biological target: Muscarinic acetylcholine receptor M4 (Homo sapiens, UniProt P08173)
Sequence (P08173 whole entry): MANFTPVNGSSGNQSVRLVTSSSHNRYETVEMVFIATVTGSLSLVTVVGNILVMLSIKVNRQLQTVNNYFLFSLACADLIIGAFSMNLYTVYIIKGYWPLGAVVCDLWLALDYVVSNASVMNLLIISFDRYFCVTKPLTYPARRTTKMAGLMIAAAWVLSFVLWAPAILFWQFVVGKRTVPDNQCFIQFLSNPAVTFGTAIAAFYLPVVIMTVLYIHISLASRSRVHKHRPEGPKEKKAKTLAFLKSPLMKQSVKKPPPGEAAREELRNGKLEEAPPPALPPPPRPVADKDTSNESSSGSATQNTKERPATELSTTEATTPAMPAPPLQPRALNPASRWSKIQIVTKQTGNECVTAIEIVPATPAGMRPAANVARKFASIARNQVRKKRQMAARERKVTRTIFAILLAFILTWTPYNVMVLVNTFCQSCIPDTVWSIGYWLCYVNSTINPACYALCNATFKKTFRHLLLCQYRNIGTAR
Test: Antagonist activity at human recombinant muscarinic M4 receptor expressed in CHO cells co-transfected with Gqi5 in presence of EC80 acetylcholine by calcium mobilization assay
Type: functional, cell-based
Conditions: read-out: pIC50 (converted)
# log10 transformed; quantity=IC50; unit=nM

Use the examples below as a reference point.
Exam item: Any idea what its log10(IC50) is? The molecule is COc1ccc(S(=O)(=O)N2CCN(c3ccc(N4CCCC[C@@H]4C)nn3)CC2)cc1OC
Marked response: 3.42

Exam item: Any idea what its log10(IC50) is? The molecule is C[C@H]1CCCCN1c1ccc(N2CCN(S(=O)(=O)c3cccc(Cl)c3)CC2)nn1
Marked response: 2.85

Exam item: Any idea what its log10(IC50) is? The molecule is C[C@@H]1CCCCN1c1ccc(N2CCN(S(=O)(=O)c3ccccc3Cl)CC2)nn1
Marked response: 3.76

New cases:
Exam item: Any idea what its log10(IC50) is? The molecule is C[C@H]1CCCCN1c1ccc(N2CCN(S(=O)(=O)c3ccccc3Cl)CC2)nn1
Marked response: 2.63

Exam item: Any idea what its log10(IC50) is? The molecule is CC1(C)CCCN(c2ccc(N3CCN(S(=O)(=O)c4ccc5c(c4)OCO5)CC3)nn2)C1
Marked response: 2.66

Exam item: Any idea what its log10(IC50) is? The molecule is C[C@H]1CCCN1c1ccc(N2CCN(S(=O)(=O)c3ccc4c(c3)OCO4)CC2)nn1
Marked response: 3.41
